The following compounds are listed with their measured GI50 values.
Test system: U251 CNS
Quantity name: GI50

1. CC[C@]12C=CCN3CC[C@@]4(c5ccc(OC)cc5N(C)[C@H]4[C@@](O)(C(=O)OC)[C@@H]1OC(=O)CCC(=O)O[C@H]1CC[C@H]4[C@@H]5CCC6=CC(=O)CC[C@@H]6[C@H]5CC[C@]14C)[C@@H]32 :: 1.91 µM
2. CC(C)c1cnc(-c2cc(Cl)ccc2F)cc1Nc1ccncc1C(=O)NC(CO)CO :: 14.9 µM
3. CSC1=CC(=O)c2ccccc2C1=O :: 11 µM
4. CS(=O)(=O)N1CCC(Nc2ncc(C(=O)c3c(F)cccc3F)c(N)n2)CC1 :: 6.33 µM
5. COC(=O)C1C(C(=O)O)C2(c3ccccc3)C(=O)C1(c1ccccc1)C(c1ccc(OC)cc1)=C2c1ccc(OC)cc1 (stereo not given) :: 36.6 µM
6. c1cc[n+](Cc2c3ccccc3cc3c2ccc2ccccc23)cc1 :: 1.1 µM
7. Cc1[nH]c(C(=O)Nc2cccc(OC3CCNCC3)c2)c(Cl)c1Cl :: 1.93 µM
8. CC(=O)OC(C(=O)[O][Ge]([CH3])([CH3])[CH3])c1ccccc1 (stereo not given) :: > 100 µM
9. CO/N=C(/C)COc1ccc2c(c1)oc(=O)c1cc(OC)ccc12 :: > 100 µM
10. COc1cc(/C=C2\CC3C4CCC5=CC(=O)CC[C@]5(C)C4CC[C@]3(C)C2=O)ccc1OCCN1CCCC1 (stereo not given in full) :: 2.86 µM
11. CS(=O)(=O)Nc1cc(-c2ccc3ncc(C#N)c(Nc4ccc(F)c(Cl)c4)c3c2)cnc1Cl :: 0.098 µM
12. Nc1nc2ccc(CNc3ccc(C(=O)NC(CC(=O)O)C(=O)O)cc3)cc2c(=O)[nH]1 (stereo not given) :: 7.49 µM
13. N#CC1=C(N)N=C(N2CCOCC2)C(C#N)C12Nc1ccccc1S2 (stereo not given) :: 27.8 µM
14. Cc1ccc2ncnc(N(C)C3CCCCC3)c2c1 :: 59.7 µM
15. COc1cc(/C=C2\CCC/C(=C\c3cc(CN4CCCC4)c(O)c(OC)c3)C2=O)cc(CN2CCCC2)c1O :: 3.03 µM

From: PubChem BioAssay (NCI)
